target desc: T1, His-SOUL^WT (wild-type SOUL fused to His-tag) (mouse, UniProt Q9WU63 1-205)
T1 construct: Cloned into the Nde I and Sal I sites of pET28a(+); this probably gives an N-terminal His-tag with a thrombin site (surmised); Dimer by gel filtration; also called mSOUL; source: E. coli BL21(DE3) with pGroESL, purified (Ni-NTA-agarose, Sephadex G-25)
T1 sequence (looked up): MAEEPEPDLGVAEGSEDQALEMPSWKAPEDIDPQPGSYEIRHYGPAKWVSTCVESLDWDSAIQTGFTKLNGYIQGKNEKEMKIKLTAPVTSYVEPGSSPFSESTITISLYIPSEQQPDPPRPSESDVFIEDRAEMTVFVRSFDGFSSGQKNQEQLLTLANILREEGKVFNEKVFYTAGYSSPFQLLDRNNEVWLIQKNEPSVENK
method: pull-down; GST-pulldown: purified His-SOUL (5 µM) and GST-ALG-2 (5 µM) with Glutathione Sepharose 4B in buffer B (100 mM Tris-HCl pH 7.5, 100 mM NaCl, 10% glycerol) with 20 µM CaCl2 (or various amounts of Ca2+), 30 min at 4 °C; SDS-PAGE, Coomassie
protocol conditions: both partners purified
quantity kind: binding result

binder	observed
GST-ALG-2 W89A (natural protein, mouse, UniProt P12815 1-191, looked up, ALG-2 (PDCD6), murine, 1-191 amino acids with W89A (pocket 3); source: E. coli, purified (as GST-ALG-2)) MAAYSYRPGPGGGPGPAAGAALPDQSFLWNVFQRVDKDRSGVISDNELQQALSNGTWTPFNPVTVRSIISMFDRENKAGVNFSEFTGVAKYITDWQNVFRTYDRDNSGMIDKNELKQALSGFGYRLSDQFHDILIRKFDRQGRGQIAFDDFIQGCIVLQRLTDIFRRYDTDQDGWIQVSYEQYLSMVFSIV	binds
GST-ALG-2 L52A (natural protein, mouse, UniProt P12815 1-191, looked up, ALG-2 (PDCD6), murine, 1-191 amino acids with L52A (pocket 3); source: E. coli, purified (as GST-ALG-2)) MAAYSYRPGPGGGPGPAAGAALPDQSFLWNVFQRVDKDRSGVISDNELQQAASNGTWTPFNPVTVRSIISMFDRENKAGVNFSEFTGVWKYITDWQNVFRTYDRDNSGMIDKNELKQALSGFGYRLSDQFHDILIRKFDRQGRGQIAFDDFIQGCIVLQRLTDIFRRYDTDQDGWIQVSYEQYLSMVFSIV	binds
GST-ALG-2^∆GF (natural protein, mouse, UniProt P12815 1-191, looked up, ALG-2 (PDCD6), murine, natural splice variant with deletion of Gly121 and Phe122; made by PCR-based mutagenesis of the 1-191 construct; also called ALG-2^ΔGF; source: E. coli, purified (as GST-ALG-2)) MAAYSYRPGPGGGPGPAAGAALPDQSFLWNVFQRVDKDRSGVISDNELQQALSNGTWTPFNPVTVRSIISMFDRENKAGVNFSEFTGVWKYITDWQNVFRTYDRDNSGMIDKNELKQALSGYRLSDQFHDILIRKFDRQGRGQIAFDDFIQGCIVLQRLTDIFRRYDTDQDGWIQVSYEQYLSMVFSIV	binds
